So I've got a bunch of compounds here, and I need their pIC50 values.
Molecular target: catalytic domain of human Bub1 (amino acids 704-1085) (Homo sapiens, UniProt O43683)
Construct: catalytic domain of human Bub1 (amino acids 704-1085); His6 (N); made in house; host or cells: Hi5 insect cells
Sequence (O43683 704-1085): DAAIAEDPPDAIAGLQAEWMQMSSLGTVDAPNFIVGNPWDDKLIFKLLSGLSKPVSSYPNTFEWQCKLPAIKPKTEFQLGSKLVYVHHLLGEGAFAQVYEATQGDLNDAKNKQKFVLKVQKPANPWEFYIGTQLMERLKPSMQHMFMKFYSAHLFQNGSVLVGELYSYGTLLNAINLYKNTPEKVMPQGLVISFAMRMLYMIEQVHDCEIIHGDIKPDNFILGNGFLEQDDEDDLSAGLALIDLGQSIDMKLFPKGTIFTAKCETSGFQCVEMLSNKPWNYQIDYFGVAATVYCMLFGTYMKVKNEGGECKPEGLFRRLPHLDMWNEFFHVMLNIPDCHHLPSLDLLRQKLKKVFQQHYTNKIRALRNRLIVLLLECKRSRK
Test: Bub1 kinase assay (TR-FRET)
Type: biochemical
Details: TR-FRET, ATP 10 μM, peptide substrate 1 μM, 60 min at 22° C.; read-out: Biological Assay 1: Bub1 kinase assay median IC50
Reminder that pIC50 is minus the log10 of a molar concentration.

Param item = COc1cnc(-c2cc(OC)n(Cc3ccccc3F)n2)nc1Nc1ccncc1C(N)=O ; retrieve measured pIC50.
7.38

Same read-out for COc1ccc(Cn2nc(-c3ncc(OC)c(Nc4ccncc4)n3)c(C)c2C2CC2)cc1 ?
7.82

Same read-out for C=Cc1cc(-c2ncc(OC)c(Nc3ccncc3)n2)nn1Cc1ccccc1 ?
6.29

Same read-out for COc1cnc(-c2nn(Cc3ccccc3F)c(C3CC3)c2C)nc1Nc1ccncc1 ?
7.44

Same read-out for COc1cnc(-c2cc(OC)n(Cc3ccccc3F)n2)nc1Nc1ccncc1 ?
6.42

Same read-out for CCOc1cc(F)c(Cn2nc(-c3ncc(O)c(Nc4ccncc4)n3)c(C)c2C2CC2)c(Sc2ccccc2)c1 ?
7.27

Same read-out for CCOc1cc(F)c(Cn2nc(-c3ncc(OCC4CCC(=O)N4)c(Nc4ccncc4)n3)c(C)c2C2CC2)c(F)c1 (single isomer, unassigned; enantiomer 2) [Example 2-3-7] ?
7.92

Same read-out for CCOc1cc(F)c(Cn2nc(-c3ncc(OCCC[S+](C)[O-])c(Nc4ccncc4)n3)c(C)c2C2CC2)c(F)c1 (stereo not shown) ?
8.10

Same read-out for CCOc1cc(F)c(Cn2nc(-c3ncc(OCC[S+](C)[O-])c(Nc4ccncc4)n3)c(C)c2C2CC2)c(F)c1 (single isomer, unassigned; enantiomer 1) [Example 2-8-2] ?
8.40

Same read-out for COc1cnc(-c2nn(Cc3c(F)c(F)c(OCC(F)(F)F)c(F)c3F)c(C3CC3)c2C)nc1Nc1ccncc1 ?
7.21

Same read-out for COc1cnc(-c2nn(Cc3c(Cl)cccc3Cl)c(OC)c2C)nc1Nc1ccncc1 ?
8.10

Same read-out for COc1cnc(-c2cc(N(C)C)n(Cc3ccccc3F)n2)nc1Nc1ccncc1 ?
5.94

Same read-out for CCOc1cc(-c2ncc(OC)c(Nc3ccncc3)n2)nn1Cc1ccccc1F ?
6.20

Same read-out for CCOc1cc(F)c(Cn2nc(-c3ncc(OCC4CCC(=O)N4)c(Nc4ccncc4)n3)c(C)c2C2CC2)c(F)c1 (single isomer, unassigned; enantiomer 1) [Example 2-3-6] ?
8.09

Same read-out for COc1cnc(-c2nn(Cc3c(F)cc(OC(F)F)cc3F)c(C3CC3)c2C)nc1Nc1ccncc1 ?
8.17

Same read-out for COc1cnc(-c2cc(OC)n(Cc3ccccc3F)n2)nc1Nc1ccncc1C#N ?
5.85
